Values compiled from patent US6716833B2.

# study_target: MMP-13 (Homo sapiens)
# protocol_details: MMP-13 inhibition (thiopeptide or fluorescent peptide substrate)
# Assay type: biochemical
# setup_conditions: Table 9; read-out: MMP-13 IC50
measured_parameter: IC50 (nM)

1 = CC#CCOc1ccc(S(=O)(=O)N2CC[S+]([O-])C(C)(C)C2C(=O)NO)cc1 (single isomer, unassigned) [Example 255]
2 = C#CCOc1ccc(S(=O)(=O)N2CCSC(C)(C)[C@@H]2C(=O)NO)cc1
*Q* Which entry shows the lesser value of IC50 here, 1 or 2 ? Selection: enter the item's label.
*A* 2
(2: 0.8 nM, 1: 8.7 nM)

1 = CC#CCOc1ccc(S(=O)(=O)N2CCSC(CC)(CC)C2C(=O)NO)cc1 (centres unmarked)
2 = CC#CCOc1ccc(S(=O)(=O)N2CCSCC2C(=O)NO)cc1 (centres unmarked)
*Q* In the pair 1 and 2 , the larger recorded IC50 belongs to which? Selection: enter the item's label.
*A* 2
(2: 12 nM, 1: 6.8 nM)
